Sourced from patent US20170298113A1

molecular target: human somatostatin receptor subtype SSTR4 (human) (UniProt P31391); assay: FACS, transfected HEK-293 cells; normalised to Compound 1
Sequence (P31391 whole entry): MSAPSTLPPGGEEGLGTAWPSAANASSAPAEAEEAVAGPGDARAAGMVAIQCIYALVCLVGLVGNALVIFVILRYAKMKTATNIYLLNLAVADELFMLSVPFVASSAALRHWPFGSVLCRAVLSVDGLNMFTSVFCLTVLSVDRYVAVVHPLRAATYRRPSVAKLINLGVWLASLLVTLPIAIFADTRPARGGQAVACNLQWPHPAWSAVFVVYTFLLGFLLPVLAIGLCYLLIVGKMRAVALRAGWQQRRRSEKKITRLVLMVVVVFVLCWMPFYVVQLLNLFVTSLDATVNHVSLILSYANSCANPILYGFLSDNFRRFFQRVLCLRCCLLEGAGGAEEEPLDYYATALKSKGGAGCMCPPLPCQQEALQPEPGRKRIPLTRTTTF
*1 amine or outer side, *2 acyl side, *3 side chain or, on linkers, in order; H or OH if unused. Bridges are numbered along the chain shown (N, C = ends). Primed or numbered codes have the meaning given here. [ ]: non-standard residue; d: D form. N(2-mercaptoethyl)Gly = O=C(CN(CCS[*:3])[*:1])[*:2]; FITC′ = fluorescein isothiocyanate; Aib = CC(C)(N)C(=O)O; GABA = NCCCC(=O)O
measurement_type: Binding affinity relative to Compound 1 (% of Compound 1)

>  <binder>
{FITC′-GABA}-[dF]CRFF[dW]KTF[N(2-mercaptoethyl)Gly]-NH2 (disulfide 2-10) [Compound 8]

>  <reported_value>
140

$$$$
>  <binder>
{FITC′-GABA}-[dF]RCF[dW]KTF[N(2-mercaptoethyl)Gly]-NH2 (disulfide 3-9) [Compound 2]

>  <reported_value>
18

$$$$
>  <binder>
XCFWXXTFX (FITC-GABA-DPhe-Cys*-Phe-Trp-DTrp-HomoLys-Thr-Phe-GlyS2*-NH2 (* = S-S bond; HomoLys = homolysine; GlyS2 = N-thioethyl glycine; C-terminal amide)) [Compound 16]

>  <reported_value>
20

$$$$
>  <binder>
{FITC′-GABA}-[dF]RCY[dW]KTF[N(2-mercaptoethyl)Gly]-NH2 (disulfide 3-9) [Compound 6]

>  <reported_value>
7

$$$$
>  <binder>
{FITC′-GABA}-[dF]CFW[dW][Aib]TF[N(2-mercaptoethyl)Gly]-NH2 (disulfide 2-9) [Compound 13]

>  <reported_value>
18

$$$$
>  <binder>
XCFWXXTFX (FITC-GABA-DPhe-Cys*-Phe-Trp-DTrp-LysAc-Thr-Phe-GlyS2*-NH2 (* = S-S bond; LysAc = acetyllysine; GlyS2 = N-thioethyl glycine; C-terminal amide)) [Compound 14]

>  <reported_value>
13

$$$$
>  <binder>
XXFWXKTFX (FITC-GABA-DPhe-HCys*-Phe-Trp-DTrp-Lys-Thr-Phe-GlyS2*-NH2 (* = S-S bond; HCys = homocysteine; GlyS2 = N-thioethyl glycine; C-terminal amide)) [Compound 11]

>  <reported_value>
129

$$$$
